assayed.target: T1, UL128/UL130 co-expressed from MVA in BHK-21 cells (human cytomegalovirus, UniProt P16837 28-171; P16772 1-214)
T1 construct: whole, on cells
T1 sequence (P16837 28-171 limits assumed, chain 1 of 2): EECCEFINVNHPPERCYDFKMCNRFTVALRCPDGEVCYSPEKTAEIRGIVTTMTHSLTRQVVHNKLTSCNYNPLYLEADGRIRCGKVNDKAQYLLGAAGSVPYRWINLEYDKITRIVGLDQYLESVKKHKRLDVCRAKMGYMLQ
T1 sequence (P16772 26-214 limits assumed, chain 2 of 2): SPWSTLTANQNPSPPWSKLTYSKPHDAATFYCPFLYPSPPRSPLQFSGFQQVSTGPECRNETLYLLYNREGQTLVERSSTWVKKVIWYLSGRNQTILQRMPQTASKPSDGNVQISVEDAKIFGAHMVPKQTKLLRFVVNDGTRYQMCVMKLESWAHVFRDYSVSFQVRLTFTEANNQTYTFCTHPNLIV
experiment.summary: intracellular FC, MVA-infected BHK-21
measured.quantity: binding result

binder	measured.quantity	value.measured
62-11 (antibody, V domains shown, also called NAb 62-11) VH: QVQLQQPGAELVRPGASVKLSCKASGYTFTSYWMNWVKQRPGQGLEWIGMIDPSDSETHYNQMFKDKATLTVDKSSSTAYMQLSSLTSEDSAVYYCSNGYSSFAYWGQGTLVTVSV VL: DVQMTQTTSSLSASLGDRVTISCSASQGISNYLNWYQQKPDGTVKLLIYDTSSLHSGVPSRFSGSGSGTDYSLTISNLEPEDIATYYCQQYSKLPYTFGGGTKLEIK	binding result	no binding
21F6 (antibody, V domains shown, also called NAb 21F6) VH: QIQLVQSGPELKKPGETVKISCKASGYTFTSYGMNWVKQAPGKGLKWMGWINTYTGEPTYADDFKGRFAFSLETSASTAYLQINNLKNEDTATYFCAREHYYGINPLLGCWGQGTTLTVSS VL: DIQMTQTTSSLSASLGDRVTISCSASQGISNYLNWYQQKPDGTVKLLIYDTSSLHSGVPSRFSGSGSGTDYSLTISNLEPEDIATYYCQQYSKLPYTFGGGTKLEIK	binding result	no binding
1B2 (antibody, V domains shown, also called NAb 1B2) VH: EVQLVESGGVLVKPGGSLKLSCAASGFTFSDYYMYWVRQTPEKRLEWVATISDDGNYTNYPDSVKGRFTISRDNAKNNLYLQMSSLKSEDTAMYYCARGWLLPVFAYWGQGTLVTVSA VL: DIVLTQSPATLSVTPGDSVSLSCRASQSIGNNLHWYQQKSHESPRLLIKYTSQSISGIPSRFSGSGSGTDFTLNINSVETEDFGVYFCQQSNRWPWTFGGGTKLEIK	binding result	no binding
